TARGET ENTITY: CVF-Bb complex (Homo sapiens (Human), UniProt P00751)
EXPERIMENTAL DETAILS: biochemical
Format: biochemical
CONDITION NOTES: read-out: IC50

COMPOUND	OP	IC50 / µM
COc1cc(C)c2[nH]ccc2c1CN1CCC2CC1c1ccc(C(=O)O)cc1OCCCCCCO2 (centres unmarked)	=	0.262
COc1cc(C)c2[nH]ccc2c1CN1CC[C@H]2C[C@H]1c1ccc(C(=O)NS(=O)(=O)C3CC3)cc1OCCCCCO2	=	0.231
COc1cc(C)c2[nH]ccc2c1CN1CC[C@@H]2CCCCCCCOc3cc(C(=O)O)ccc3[C@@H]1C2	=	0.0856
COc1cc(C)c2[nH]ccc2c1CN1CC[C@H]2C[C@H]1c1ccc(C(=O)O)cc1OCCCn1cc(nn1)CO2	=	1.11
CCS(=O)(=O)NC(=O)c1ccc2c(c1)OCCCCCO[C@H]1CCN(Cc3c(OC)cc(C)c4[nH]ccc34)[C@H]2C1	=	0.244
COc1cc(C)c2[nH]ccc2c1CN1CC[C@H]2C[C@H]1c1ccc(C(=O)NS(=O)(=O)c3ccccc3)cc1OCCCCCCO2	=	0.153
COc1cc(C)c2[nH]ccc2c1CN1CC[C@H]2C[C@H]1c1ccc(C(=O)NS(=O)(=O)C3CCCC3)cc1OCCCCCO2	=	0.331
COc1cc(C)c2[nH]ccc2c1CN1CC[C@H]2C[C@H]1c1ccc(C(=O)O)c3ccc(cc13)OCCCCCCO2	=	0.208
COc1cc(C)c2[nH]ccc2c1CN1CC[C@H]2C[C@H]1c1ccc(C(=O)NS(=O)(=O)C3CC3)cc1OCCCCCCO2	>	10
COc1cc(C)c2[nH]ccc2c1CN1CC[C@H]2C[C@H]1c1ccc(C(=O)NS(C)(=O)=O)cc1/C=C\CCCCCO2	=	0.674
COc1cc(C)c2[nH]ccc2c1CN1CC[C@H]2C[C@H]1c1ccc(C(=O)NS(=O)(=O)C3CCCC3)cc1OCCCCCCO2	=	0.293
COc1cc(C)c2[nH]ccc2c1CN1CC[C@H]2C[C@H]1c1ccc(C(=O)O)cc1/C=C/CCCCCCCO2 [Ex. 73]	=	0.271
COc1cc(C)c2[nH]ccc2c1CN1CC[C@H]2C[C@H]1c1ccc(C(=O)NO)cc1OCCCCCCO2	=	2.45
CNS(=O)(=O)c1ccc2c(c1)OCCCCCCO[C@H]1CCN(Cc3c(OC)cc(C)c4[nH]ccc34)[C@H]2C1	>	10
COc1cc(C)c2[nH]ccc2c1CN1CC[C@H]2C[C@H]1c1ccc(C(=O)NS(C)(=O)=O)cc1CCCCCCCCO2	=	0.139
COc1cc(C)c2[nH]ccc2c1CN1CC[C@H]2C[C@H]1c1ccc(C(=O)O)c3ccc(cc13)OCCC/C=C/CO2	=	0.0837
COc1cc(C)c2[nH]ccc2c1CN1CC[C@H]2C[C@H]1c1ccc(-c3nnn[nH]3)cc1OCCCCCCO2	=	1.25
COc1cc(C)c2[nH]ccc2c1CN1CC[C@H]2C[C@H]1c1ccc(-c3ccn[nH]3)cc1OCCCCCCO2	=	2.89
COc1cc(C)c2[nH]ccc2c1CN1CCC2CC1c1ccc(C(=O)O)c3ccc(cc13)OCCCCCCO2 (centres unmarked)	>	10
COc1cc(C)c2[nH]ccc2c1CN1CC[C@H]2C[C@H]1c1ccc(C(=O)O)cc1OCCC/C=C\CO2	=	1.2
COc1cc(C)c2[nH]ccc2c1CN1CC[C@H]2C[C@H]1c1ccc(C(=O)NS(=O)(=O)c3ccccc3)cc1OCCCCCO2	=	0.543
COc1cc(C)c2[nH]ccc2c1CN1CC[C@H]2C[C@H]1c1ccc(C(=O)O)c3ccc(cc13)OC/C=C\CO2	=	0.352
COc1cc(C)c2[nH]ccc2c1CN1CC[C@H]2C[C@H]1c1ccc(C(=O)O)cc1OCCCC/C=C\CO2	=	0.384
COc1cc(C)c2[nH]ccc2c1CN1CC[C@H]2C[C@H]1c1ccc(C(=O)NS(C)(=O)=O)cc1/C=C/CCCCCCO2	=	1.06
COc1cc(C)c2[nH]ccc2c1CN1CC[C@H]2C[C@H]1c1ccc(C(=O)NS(=O)(=O)C(C)C)cc1OCCCCCO2	=	0.411
COc1cc(C)c2[nH]ccc2c1CN1CC[C@H]2C[C@H]1c1ccc(C(=O)O)cc1OCCCCCCCO2	=	0.384
COc1cc(C)c2[nH]ccc2c1CN1CC[C@H]2C[C@H]1c1ccc(C(=O)NS(C)(=O)=O)cc1/C=C/CCCCCO2	=	0.581
COc1cc(C)c2[nH]ccc2c1CN1CC[C@H]2CCCCCCCOc3cc(C(=O)O)ccc3[C@@H]1C2	=	0.731
COc1cc(C)c2[nH]ccc2c1CN1CC[C@H]2C[C@H]1c1ccc(C(=O)NS(=O)(=O)C3(C)CC3)cc1OCCCCCO2	=	0.33
